target-of-assay: NmeIPMS (Neisseria meningitidis serogroup B, UniProt Q9JZG1)
Sequence (Q9JZG1 1-517): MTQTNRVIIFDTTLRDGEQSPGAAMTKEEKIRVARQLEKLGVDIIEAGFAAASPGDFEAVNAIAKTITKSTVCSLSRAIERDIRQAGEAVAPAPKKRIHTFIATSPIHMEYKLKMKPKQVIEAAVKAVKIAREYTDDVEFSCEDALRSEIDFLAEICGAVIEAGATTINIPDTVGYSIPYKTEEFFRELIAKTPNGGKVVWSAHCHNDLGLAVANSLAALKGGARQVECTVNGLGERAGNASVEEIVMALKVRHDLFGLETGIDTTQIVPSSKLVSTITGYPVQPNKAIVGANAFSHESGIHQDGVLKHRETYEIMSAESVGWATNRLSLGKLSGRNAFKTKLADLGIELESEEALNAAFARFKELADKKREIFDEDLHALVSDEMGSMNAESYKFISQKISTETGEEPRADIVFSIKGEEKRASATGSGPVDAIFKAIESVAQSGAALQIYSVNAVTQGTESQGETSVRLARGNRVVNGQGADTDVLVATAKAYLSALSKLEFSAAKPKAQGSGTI
quantity-kind: Kd (µM)
Give the quantity in µM, number only.

// Kd value for "CC(C)C[C@H](N)C(=O)O" : 376

----------
target-of-assay: NmeIPMSR470Q (Neisseria meningitidis serogroup B, UniProt Q9JZG1, R470Q)
measurement-protocol: waterLOGSY NMR Leu binding assay
quantity-kind: pKd
Keep it numeric: pKd is minus log10 of the concentration in mol/L.

// pKd value for CC(C)C[C@H](N)C(=O)O [Leu, leucine] : 3.41

----------
target-of-assay: NmeIPMSR32Q (Neisseria meningitidis serogroup B, UniProt Q9JZG1, R32Q)
Sequence (Q9JZG1 1-517 R32Q): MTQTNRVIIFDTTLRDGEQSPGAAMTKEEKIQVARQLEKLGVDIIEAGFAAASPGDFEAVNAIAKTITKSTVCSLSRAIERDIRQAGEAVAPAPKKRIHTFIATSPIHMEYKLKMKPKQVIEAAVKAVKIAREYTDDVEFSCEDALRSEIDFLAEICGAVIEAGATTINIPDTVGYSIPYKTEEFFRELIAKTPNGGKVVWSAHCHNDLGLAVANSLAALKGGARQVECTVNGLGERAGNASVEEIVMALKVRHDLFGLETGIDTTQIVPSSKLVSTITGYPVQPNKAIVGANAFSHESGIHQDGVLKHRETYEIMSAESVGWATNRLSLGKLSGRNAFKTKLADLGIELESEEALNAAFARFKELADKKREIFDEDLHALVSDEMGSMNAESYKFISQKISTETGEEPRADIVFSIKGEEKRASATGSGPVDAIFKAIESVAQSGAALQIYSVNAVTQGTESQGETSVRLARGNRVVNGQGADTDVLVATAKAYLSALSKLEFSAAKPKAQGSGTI
measurement-protocol: Leu inhibition assay
Format: biochemical
quantity-kind: Ki

// Ki value for "CC(C)C[C@H](N)C(=O)O" : > 100 µM

----------
target-of-assay: NmeIPMSR32Q (Neisseria meningitidis serogroup B, UniProt Q9JZG1, R32Q)
Sequence (Q9JZG1 1-517 R32Q): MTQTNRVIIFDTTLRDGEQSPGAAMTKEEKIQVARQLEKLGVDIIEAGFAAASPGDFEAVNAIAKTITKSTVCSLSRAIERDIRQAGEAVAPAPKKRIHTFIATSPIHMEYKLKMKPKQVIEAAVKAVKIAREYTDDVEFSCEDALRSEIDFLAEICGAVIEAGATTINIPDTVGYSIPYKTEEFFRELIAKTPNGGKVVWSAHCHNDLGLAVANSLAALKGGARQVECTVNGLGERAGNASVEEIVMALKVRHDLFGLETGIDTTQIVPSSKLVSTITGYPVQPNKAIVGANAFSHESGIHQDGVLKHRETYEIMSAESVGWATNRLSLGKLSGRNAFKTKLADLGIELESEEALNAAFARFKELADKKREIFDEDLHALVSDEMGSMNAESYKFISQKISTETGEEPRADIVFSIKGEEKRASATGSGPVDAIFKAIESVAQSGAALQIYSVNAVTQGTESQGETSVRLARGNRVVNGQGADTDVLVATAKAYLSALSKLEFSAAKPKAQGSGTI
measurement-protocol: waterLOGSY NMR Leu binding assay
quantity-kind: pKd
Keep it numeric: pKd is minus log10 of the concentration in mol/L.

// pKd value for CC(C)C[C@H](N)C(=O)O [Leu, leucine] : 3.45

----------
target-of-assay: NmeIPMSR32Q^hetero (Neisseria meningitidis serogroup B, UniProt Q9JZG1, R32Q)
measurement-protocol: waterLOGSY NMR Leu binding assay
quantity-kind: Kd

Item "CC(C)C[C@H](N)C(=O)O" ; assay system NmeIPMSR32Q^hetero (Neisseria meningitidis serogroup B, UniProt Q9JZG1, R32Q); Kd reported as 324 µM

Where do the numbers come from? From paper PMC9860122.
